STUDY_TARGET: T1, Insulin receptor prepared according to Bass et al., 1996: soluble human insulin receptor-immunoglobulin heavy … (human, UniProt P06213 28-956)
T1 construct: extracellular domain; Eu3+-labelled in TR-FRET; also called IR; sIR-Fc; not shown: immunoglobulin heavy chain constant domains that replace the transmembrane and i
PROTOCOL_TEXT: phage ELISA vs milk
Give Ratio over Background for every item shown.
Give bare numbers, in fold.

Example cases with answers are listed next.
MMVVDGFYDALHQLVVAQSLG [20E2A-3-D10-IGFR] :: 1.8
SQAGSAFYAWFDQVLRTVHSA [20E2Bβ-4-G6-IR] :: 1.9

Respectfully, I request Ratio over Background for each entry included below.
1. RFDPFYSYFVNLLGASA [NNRPγ-4-A7-IR]
2. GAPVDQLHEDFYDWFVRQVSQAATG [E2CA-2-B2-IGFR]

OUTPUT:
[1.3, 1]
